This collection of values is drawn from ChEMBL document CHEMBL6103598.

- Test system: Mus musculus
- method: Antiinflammatory activity against TPA-induced ear edema in female CD1 mouse model assessed as reduction in ear edema by measuring effective dose measured per ear incubated for 4 hrs administered topically
- Assay type: functional
Output label 1 for records whose ED50 is lower than 0.5 mg, label 0 for records at or above 0.5 mg.

Some solved entries appear below for comparison.
> print(dat)
                                   compound  classification
1  COc1ccc2cc([C@H](C)C(=O)OCC(C)(N[C@@H](C)c3ccccc3)P(=O)(OC)OC)ccc2c1 (stereo not given in full)         label 1
2  COc1ccc2cc([C@H](C)C(=O)OCC(C)(NCc3ccccc3)P(=O)(OC)OC)ccc2c1 (stereo not given in full)         label 0
3          COc1ccc2cc([C@H](C)C(=O)O)ccc2c1         label 1

Okay, now this compound:
Exam item: Confirm or reject: ED50 of COc1ccc2c(c1)c(CC(=O)O)c(C)n2C(=O)c1ccc(Cl)cc1 lies strictly below 0.5 mg
Marked response: label 0

###

- Test system: Mus musculus
- method: Antiinflammatory activity against TPA-induced ear edema in female CD1 mouse model assessed as reduction in ear edema by measuring effective dose measured per ear incubated for 4 hrs administered topically
- Assay type: functional
Give measured ED50 for each item. Keep answers brief.
Give bare numbers, in mg.

> print(dat)
                                   molecule  measure  obs.value
1  CCC(=O)OCC(C)(NCc1ccccc1)P(=O)(OC)OC (stereo not drawn)     ED50       0.48

For each of the molecules below, state ED50.
1. CCC(=O)OCC(C)(N[C@@H](C)c1ccccc1)P(=O)(OC)OC (stereo partly drawn)
2. COP(=O)(OC)C(C)(COC(=O)c1ccccc1)N[C@@H](C)c1ccccc1 (stereo partly drawn)

Marked response:
1: 0.66; 2: 0.46

###

- method: Octanol/water partition coefficient, logP of compound by shake flask method
- Type: physicochemical
# logP >= 4 gives fulfilled, anything below gives not fulfilled

Some solved entries appear below for comparison.
> print(dat)
                                   molecule  classification
1  CCC(=O)OCC(C)(N[C@@H](C)c1ccccc1)P(=O)(OC)OC (some centres not stated)   not fulfilled
2  COc1ccc2cc([C@H](C)C(=O)OCC(C)(N[C@@H](C)c3ccccc3)P(=O)(OC)OC)ccc2c1 (some centres not stated)       fulfilled
3  COP(=O)(OC)C(C)(COC(=O)c1ccccc1)NCc1ccccc1 (configuration not stated)       fulfilled
4  COP(=O)(OC)C(C)(COC(=O)c1ccccc1)N[C@@H](C)c1ccccc1 (some centres not stated)       fulfilled
5  COc1ccc2cc([C@H](C)C(=O)OCC(C)(NCc3ccccc3)P(=O)(OC)OC)ccc2c1 (some centres not stated)       fulfilled

Exam item: Would you say CCC(=O)OCC(C)(NCc1ccccc1)P(=O)(OC)OC (configuration not stated) shows logP at minimum 4?
Marked response: not fulfilled
